Values compiled from the supplement of paper PMC11061612.

System: Saos-2 (Osteosarcoma)
Assay comment: combination Emax (second highest fraction inhibited in the dose matrix, 72 h); higher = more inhibition; extreme values may be limits of the assay

{"columns": ["Molecule", "combination Emax"],
 "data": [
  ["C[C@@H]1COCCN1c1cc(C2([S@](C)(=N)=O)CC2)nc(-c2ccnc3[nH]ccc23)n1 [AZD6738] + C1CC(C1)(C(=O)[O-])C(=O)[O-].N.N.[Pt+2] [Carboplatin] (first compound max 10 µM, 7x7, partner max 10 µM)", 0.544],
  ["COc1nnc2ccc(N3CCC(c4ccc(OCCN5CCN(C)C(=O)[C@H]5C)cc4)CC3)nn12 [AZD5153] + CCN(CCO)CCCOc1ccc2c(Nc3cc(CC(=O)Nc4cccc(F)c4)[nH]n3)ncnc2c1 [AZD2811] (first compound max 1 µM, 7x7, partner max 1 µM)", 0.601],
  ["CN(CCO)CC[C@H](CSc1ccccc1)Nc1ccc(S(=O)(=O)NC(=O)c2ccc(N3CCC([C@@H](O)c4ccccc4-c4ccc(Cl)cc4)CC3)cc2)cc1S(=O)(=O)C(F)(F)F [AZD4320] + CCN(CCO)CCCOc1ccc2c(Nc3cc(CC(=O)Nc4cccc(F)c4)[nH]n3)ncnc2c1 [AZD2811] (first compound max 1 µM, 7x7, partner max 1 µM)", 0.77]
]}

* * *

Test system: HCC-827 (Lung Adenocarcinoma);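 note: after 72 h of two-drug dosing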
Assay comment: Bliss excess, mean over the matrix (fraction); higher = more synergy
compounds and their reported Bliss excess

{"columns": ["Compound", "Bliss excess"],
 "data": [
  ["NC1(C(=O)N[C@@H](CCO)c2ccc(Cl)cc2)CCN(c2ncnc3[nH]ccc23)CC1 [Capivasertib] + COc1nnc2ccc(N3CCC(c4ccc(OCCN5CCN(C)C(=O)[C@H]5C)cc4)CC3)nn12 [AZD5153] (first compound max 10 µM, 7x7, partner max 1 µM)", 0.0472],
  ["Cn1cnc2c(F)c(Nc3ccc(Br)cc3Cl)c(C(=O)NOCCO)cc21 [Selumetinib] + CCN(CCO)CCCOc1ccc2c(Nc3cc(CC(=O)Nc4cccc(F)c4)[nH]n3)ncnc2c1 [AZD2811] (first compound max 10 µM, 7x7, partner max 1 µM)", -0.0711],
  ["Cc1c2c(nn1C)CSCc1cc(n(C)n1)CSc1cc(c3ccccc3c1)OCCCc1c(C(=O)O)n(C)c3c-2c(Cl)ccc13 [AZD5991] + Cn1cnc2c(F)c(Nc3ccc(Br)cc3Cl)c(C(=O)NOCCO)cc21 [Selumetinib] (first compound max 1 µM, 7x7, partner max 3 µM)", -0.0091],
  ["COc1nnc2ccc(N3CCC(c4ccc(OCCN5CCN(C)C(=O)[C@H]5C)cc4)CC3)nn12 [AZD5153] + C[C@@H]1COCCN1C2=NC(=NC(=C2)C3(CC3)[S@](=N)(=O)C)C4=C5C=CNC5=NC=C4 [AZD6738] (first compound max 1 µM, 7x7, partner max 10 µM)", 0.08]
]}

* * *

Tested on: SNU-61 (Colorectal Carcinoma)
Assay comment: combination Emax (second highest fraction inhibited in the dose matrix, 72 h); higher = more inhibition; extreme values may be limits of the assay
molecules and their reported combination Emax

{"columns": ["Molecule", "combination Emax"],
 "data": [
  ["NC1(C(=O)N[C@@H](CCO)c2ccc(Cl)cc2)CCN(c2ncnc3[nH]ccc23)CC1 [Capivasertib] + CC(=O)c1c(C)c2cnc(Nc3ccc(N4CCNCC4)cn3)nc2n(C2CCCC2)c1=O [Palbociclib] (first compound max 10 µM, 7x7, partner max 10 µM)", 0.168],
  ["CC1(C)CCC(CN2CCN(c3ccc(C(=O)NS(=O)(=O)c4ccc(NCC5CCOCC5)c([N+](=O)[O-])c4)c(Oc4cnc5[nH]ccc5c4)c3)CC2)=C(c2ccc(Cl)cc2)C1 [Venetoclax] + CCN(CCO)CCCOc1ccc2c(Nc3cc(CC(=O)Nc4cccc(F)c4)[nH]n3)ncnc2c1 [AZD2811] (first compound max 1 µM, 7x7, partner max 1 µM)", 0.168],
  ["NC1(C(=O)N[C@@H](CCO)c2ccc(Cl)cc2)CCN(c2ncnc3[nH]ccc23)CC1 [Capivasertib] + COc1nnc2ccc(N3CCC(c4ccc(OCCN5CCN(C)C(=O)[C@H]5C)cc4)CC3)nn12 [AZD5153] (first compound max 10 µM, 7x7, partner max 1 µM)", 0.303]
]}
